All figures here come from paper PMC2756588.

Biological target: Rvs167, P39743
Sequence (P39743 419-482): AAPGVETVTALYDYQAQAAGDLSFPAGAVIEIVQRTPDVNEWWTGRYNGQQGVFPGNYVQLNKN
Assay: SPOT array
Conditions: median of control spots 2707
quantity measured: SPOT intensity

Example entries and their recorded answers appear below.
| binder | SPOT intensity |
| --- | --- |
| HGKRRAPLLLAKLDV | 0 |
| EEEEEHPPLPARRKS | 222 |
| IPSRPAPKPPSSASA | 1 |
| LKQRFFLMFPKSIIW | 0 |
| VQPTAAPATPPRHIS | 12 |
| TIRRRAPLSLLESHT | 3 |
| RLSFFFPLDPAYIRN | 0 |
| QTMRQAPKRPDADVA | 10 |

P: RPVPPPPPMRTTTEG
Q: RMVRRRPLRVQFSAR
R: KDKKTKPTPPPKPSH
S: RPPRPPPKPLHLRTE
List from greatest to least SPOT intensity. List the labels in the requested order.
P, S, Q, R
